We begin with a simple list: items and their reported apparent Kd.
- Tested on: MS2 coat protein
- assayName: apparent Kd, MS2 coat protein; higher = weaker binding; RNA-MaP array; FMN 200 µM where present
- conditionDetails: designed as: OFF switch for flavin mononucleotide; no ligand

>  <sequenceText>
AACUCGUCAGGAUAUGCAUGCAGUUGCUGCAUUUCGCCGUUGCAGAAGGGACAUGAGGAUCACCCAUGUAGGUC

>  <subjectOfTest>
MS2 coat protein

>  <apparent Kd [nM]>
42.4

$$$$
>  <sequenceText>
CUUGGCUAGGAGAAGGGCUAGAGUGUGAUAUAUUUGCCCGCGAGCACAUGAGGAUCACCCAUGUAGCAGGAUAUCCAAGCCGGU

>  <subjectOfTest>
MS2 coat protein

>  <apparent Kd [nM]>
7.4

$$$$
>  <sequenceText>
GUCAGCUCGUGAGGAUAUACAUGUGCUGGAGACAGCACUAAUAGAAUCACAUGAGGAUCACCCAUGUAGAAGGCACGAGCUGAU

>  <subjectOfTest>
MS2 coat protein

>  <apparent Kd [nM]>
17

$$$$
>  <sequenceText>
GGAUGUCAAAGACAUCCAUAACGAACAUGAGGAUCACCCAUGUAGGAUAUGCUACUCAAAGAGUAGCAGAAGGACAUGUGUCUU

>  <subjectOfTest>
MS2 coat protein

>  <apparent Kd [nM]>
30.3

$$$$
>  <sequenceText>
UGGUGUGAAUAGGAUAUGAACUCUGCCAGGAUAUCAGAAGGGUUUACAUGAGGAUCACCCAUGUCAUCCACUGC

>  <subjectOfTest>
MS2 coat protein

>  <apparent Kd [nM]>
18.8

$$$$
>  <sequenceText>
UUUUAACAUGAGGAUCACCCAUGUGAGGAUAUCGAAAUUUAUAUUUAUAUUAAUUUUUCGAGAAGGCACAUUUU

>  <subjectOfTest>
MS2 coat protein

>  <apparent Kd [nM]>
169

$$$$
>  <sequenceText>
CGUGACUCAGGAUAUCUAUAGUGUCACAUGAGGAUCACCCAUGUCCAGCGAAAGCUGGAGGGAGAAGGGAGUCACG

>  <subjectOfTest>
MS2 coat protein

>  <apparent Kd [nM]>
96.7

$$$$
